target: CSF1 receptor (CSF1R) (UniProt P07333); experiment: cell-based or functional assay
Sequence (P07333 20-972 limits assumed): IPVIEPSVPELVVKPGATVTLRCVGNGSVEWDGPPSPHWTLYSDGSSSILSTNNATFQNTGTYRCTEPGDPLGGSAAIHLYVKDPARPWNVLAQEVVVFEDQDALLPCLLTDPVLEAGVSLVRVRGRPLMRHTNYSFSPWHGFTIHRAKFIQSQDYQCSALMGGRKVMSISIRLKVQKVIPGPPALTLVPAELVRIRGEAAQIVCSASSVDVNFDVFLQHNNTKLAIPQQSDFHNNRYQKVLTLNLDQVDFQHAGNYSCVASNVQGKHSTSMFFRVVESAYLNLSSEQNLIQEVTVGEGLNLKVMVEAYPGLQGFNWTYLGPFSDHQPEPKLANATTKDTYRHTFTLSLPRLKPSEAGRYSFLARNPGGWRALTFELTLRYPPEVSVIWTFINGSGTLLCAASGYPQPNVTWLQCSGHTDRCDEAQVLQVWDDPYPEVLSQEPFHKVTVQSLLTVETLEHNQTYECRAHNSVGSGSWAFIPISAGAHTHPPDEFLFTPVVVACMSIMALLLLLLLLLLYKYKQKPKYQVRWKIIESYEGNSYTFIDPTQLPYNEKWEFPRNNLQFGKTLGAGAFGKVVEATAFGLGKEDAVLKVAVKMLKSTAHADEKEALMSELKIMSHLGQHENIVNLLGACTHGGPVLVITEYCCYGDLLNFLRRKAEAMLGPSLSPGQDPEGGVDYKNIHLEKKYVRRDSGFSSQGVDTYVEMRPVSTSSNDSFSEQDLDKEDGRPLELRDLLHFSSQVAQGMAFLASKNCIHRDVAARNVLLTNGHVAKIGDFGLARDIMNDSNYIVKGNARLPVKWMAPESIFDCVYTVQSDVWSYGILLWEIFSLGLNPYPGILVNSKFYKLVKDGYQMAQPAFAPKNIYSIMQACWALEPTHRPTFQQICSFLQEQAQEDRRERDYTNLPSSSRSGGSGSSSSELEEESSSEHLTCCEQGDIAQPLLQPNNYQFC
Form field: EC-50, HEK293 CSF1R/SRE reporter, biological replica 2 (one value per entry).
Form: value (number only, do not type unit).

// solved cases for EC-50, HEK293 CSF1R/SRE reporter, biological replica 2 follow
CSF1 A76I, V117L (ligand) EEVSEYCSHMIGSGHLQSLQRLIDSQMETSCQITFEFVDQEQLKDPVCYLKKAFLLVQDIMEDTMRFRDNTPNAIIIVQLQELSLRLKSCFTKDYEEHDKACVRTFYETPLQLLEKLKNVFNETKNLLDKDWNIFSKNCNNSFAECSSQD = 5.97e-10
CSF1 (wild-type human CSF1) (ligand) EEVSEYCSHMIGSGHLQSLQRLIDSQMETSCQITFEFVDQEQLKDPVCYLKKAFLLVQDIMEDTMRFRDNTPNAIAIVQLQELSLRLKSCFTKDYEEHDKACVRTFYETPLQLLEKVKNVFNETKNLLDKDWNIFSKNCNNSFAECSSQD = 3.37e-10
CSF1 V117I (ligand) EEVSEYCSHMIGSGHLQSLQRLIDSQMETSCQITFEFVDQEQLKDPVCYLKKAFLLVQDIMEDTMRFRDNTPNAIAIVQLQELSLRLKSCFTKDYEEHDKACVRTFYETPLQLLEKIKNVFNETKNLLDKDWNIFSKNCNNSFAECSSQD = 4.37e-10

Next, consider the following binder.
Input line: Entry CSF1 V120I (ligand) EEVSEYCSHMIGSGHLQSLQRLIDSQMETSCQITFEFVDQEQLKDPVCYLKKAFLLVQDIMEDTMRFRDNTPNAIAIVQLQELSLRLKSCFTKDYEEHDKACVRTFYETPLQLLEKVKNIFNETKNLLDKDWNIFSKNCNNSFAECSSQD has what EC-50, HEK293 CSF1R/SRE reporter, biological replica 2?
Output line: 4.43e-10
